Structures can show the parent of a compound that is named as a salt.
Assay system human SERT (Homo sapiens (Human)); read-out recorded as Ki.
Answer as a quantity: numeral, then unit.

Below are worked cases with known answers.
Give Ki; test system human SERT (Homo sapiens (Human)); compound FC(F)(F)Oc1cccc(COc2ccc(Br)cc2OC2CNC2)c1
23 nM

Give Ki; test system human SERT (Homo sapiens (Human)); compound Clc1ccc(COc2ccc(Cl)cc2OC2CNC2)cc1 [Example 36, trifluoroacetate]
36 nM

Give Ki; test system human SERT (Homo sapiens (Human)); compound Clc1ccc(OCc2ccccc2Cl)c(OC2CNC2)c1
3 nM

Give Ki; test system human SERT (Homo sapiens (Human)); compound CC(Oc1ccc(Cl)cc1OC1CNC1)c1ccc(F)c(C(F)(F)F)c1 (racemic)
71 nM

Give Ki; test system human SERT (Homo sapiens (Human)); compound CC(C)N1CC(Oc2cc(F)ccc2OCc2ccc(C(F)(F)F)o2)C1
20 nM

Give Ki; test system human SERT (Homo sapiens (Human)); compound Clc1ccc2c(c1)CCC2Oc1ccc(Br)cc1OC1CNC1 (racemic)
25 nM

More entries:
Give Ki; test system human SERT (Homo sapiens (Human)); compound FC(F)(F)c1ccc2c(c1)C(Oc1ccc(Br)cc1OC1CNC1)CC2 (racemic)
181 nM

Give Ki; test system human SERT (Homo sapiens (Human)); compound Clc1ccc(OCCc2ccccc2)c(OC2CNC2)c1
53 nM

Give Ki; test system human SERT (Homo sapiens (Human)); compound CN1CC(Oc2cc(Cl)ccc2OCc2cccc(Cl)c2)C1
100 nM

###

- test.system: UniProt P32305
- assay.explanation: r5-HT7 binding assay, competitive radioligand binding with [3H]5-CT
- study.conditions: rat 5-HT7 receptor, HEK-293 membranes
Where a name gives a salt, the structure may show the parent alone.
Entries and their Ki
Expressed in nM, but write only the number.

Below are worked cases with known answers.
Please list Ki recorded for the molecule Brc1ccc(OC2Cc3ccccc3C2)c(OC2CNC2)c1
6

Please list Ki recorded for the molecule CC(Oc1ccc(Cl)cc1OC1CN(C2CCC2)C1)c1cccc(C(F)(F)F)c1 (racemic)
90

Please list Ki recorded for the molecule CC(Oc1ccc(Cl)cc1OC1CN(C)C1)c1cccc(C(F)(F)F)c1 (racemic)
5

Please list Ki recorded for the molecule Clc1ccc(OCc2ccc3ncsc3c2)c(OC2CNC2)c1
34

Please list Ki recorded for the molecule O=C(COc1ccc(Cl)cc1OC1CNC1)c1ccc(Cl)cc1
110

Please list Ki recorded for the molecule CN(C)C(=O)c1ccc(OCc2cccc(Cl)c2)c(OC2CNC2)c1
9000

Please list Ki recorded for the molecule Clc1ccc(OC2CCCC2)c(OC2CNC2)c1 [Example 72, trifluoroacetate]
270

Please list Ki recorded for the molecule Clc1ccc(OCc2ccccn2)c(OC2CNC2)c1
387

More entries:
Please list Ki recorded for the molecule FC(F)(F)c1ccc(OCc2ccc(C(F)(F)F)o2)c(OC2CNC2)c1
18

Please list Ki recorded for the molecule Fc1ccc(OCc2cccc(Cl)c2)c(OC2CN(C3CCC3)C2)c1
27

Please list Ki recorded for the molecule Fc1ccc2c(c1)C(Oc1ccc(Cl)cc1OC1CNC1)CC2 (racemic)
10

###

- test.system: rat 5-HT7 receptor (Rattus norvegicus (Rat), UniProt P32305)
- Sequence (P32305 1-435): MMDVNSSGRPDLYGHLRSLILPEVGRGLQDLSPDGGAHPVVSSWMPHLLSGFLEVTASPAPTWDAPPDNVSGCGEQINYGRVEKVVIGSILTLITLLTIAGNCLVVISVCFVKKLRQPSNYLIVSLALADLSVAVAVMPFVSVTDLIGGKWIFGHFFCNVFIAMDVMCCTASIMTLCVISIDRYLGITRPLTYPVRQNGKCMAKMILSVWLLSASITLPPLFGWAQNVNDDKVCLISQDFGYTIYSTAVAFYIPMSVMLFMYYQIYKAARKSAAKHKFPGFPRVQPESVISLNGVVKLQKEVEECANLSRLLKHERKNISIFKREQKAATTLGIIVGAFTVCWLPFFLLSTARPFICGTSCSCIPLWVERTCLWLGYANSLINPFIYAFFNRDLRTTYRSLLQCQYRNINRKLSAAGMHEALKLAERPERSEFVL
- assay.explanation: r5-HT7 binding assay, competitive radioligand binding with [3H]5-CT
- study.conditions: rat 5-HT7 receptor, HEK-293 membranes
measurement.type: Ki (nM)
Expressed in nM, but write only the number.

Please list Ki recorded for the compound CC(Oc1ccc(Br)cc1OC1CNC1)c1cccc(C(F)(F)F)c1 (racemic) [Example 112]
23

// moving on: another record for Ki
Please list Ki recorded for the compound Clc1cccc(CCOc2ccc(Cl)cc2OC2CNC2)c1 [Example 185]
6

###

Counter-ions that a name gives are not always drawn.
Assay system human SERT (Homo sapiens (Human)); read-out recorded as pKi.
Worth noting: pKi values are minus log10 of concentrations stated in mol/L.

Please list pKi recorded for the molecule CC(Oc1ccc(Cl)cc1OC1CNC1)c1cccc(C(F)(F)F)c1 (stereo in doubt) [Example 101]
6.82

Please list pKi recorded for the molecule Fc1ccc(COc2ccc(Cl)cc2OC2CNC2)cc1 [Example 25, hydrochloride]
7.72

Please list pKi recorded for the molecule Clc1ccc(Oc2ccc3ccccc3c2)c(OC2CNC2)c1 [Example 260]
8.70

Please list pKi recorded for the molecule CC(Oc1ccc(Cl)cc1OC1CNC1)c1ccc(F)cc1 (racemic) [Example 124]
7.70

// moving on: another record for pKi
Please list pKi recorded for the molecule Clc1ccc(OC2CCCc3ccccc32)c(OC2CNC2)c1 (centres unmarked) [Example 161]
7.22

###

- test.system: r5-HT7 receptor (Rattus norvegicus (Rat))
- assay.explanation: HitHunter cAMP assay, antagonist testing against 100 nM 5-CT
- Assay type: cell-based
- study.conditions: antagonist testing, 100 nM 5-CT challenge, HEK-293 r5-HT7; read-out: R5HT7 cAMP pKb (converted)
measurement.type: Kb

Below are worked cases with known answers.
Give Kb; test system r5-HT7 receptor (Rattus norvegicus (Rat)); compound FC(F)(F)c1ccc2c(c1)C(Oc1ccc(Cl)cc1OC1CNC1)CC2 (stereo not drawn)
5.01 nM

Give Kb; test system r5-HT7 receptor (Rattus norvegicus (Rat)); compound O=C(c1ccc2c(c1)OCO2)c1ccc(Br)cc1OC1CNC1
39.8 nM

Give Kb; test system r5-HT7 receptor (Rattus norvegicus (Rat)); compound Cc1ccc2c(c1)C(Oc1ccc(Cl)cc1OC1CNC1)CC2 (racemic)
10 nM

Give Kb; test system r5-HT7 receptor (Rattus norvegicus (Rat)); compound CCCN1CC(Oc2cc(Br)ccc2OCc2cccc(F)c2)C1
2 nM

Give Kb; test system r5-HT7 receptor (Rattus norvegicus (Rat)); compound Clc1cccc(COc2ccc(Cl)cc2OC2CNC2)c1
126 nM

More entries:
Give Kb; test system r5-HT7 receptor (Rattus norvegicus (Rat)); compound CCN1CC(Oc2cc(Br)ccc2OCc2cccc(F)c2)C1
1.58 nM

Give Kb; test system r5-HT7 receptor (Rattus norvegicus (Rat)); compound FC(F)(F)c1ccc(COc2ccc(Cl)cc2OC2CNC2)o1
7.94 nM

Give Kb; test system r5-HT7 receptor (Rattus norvegicus (Rat)); compound Clc1ccc(OC2CCCc3ccccc32)c(OC2CNC2)c1 (stereo not drawn)
15.8 nM

Give Kb; test system r5-HT7 receptor (Rattus norvegicus (Rat)); compound C[C@@H](Oc1ccc(C(F)(F)F)cc1OC1CNC1)c1cccc(C(F)(F)F)c1 (stereo in doubt)
158 nM

###

- test.system: rat 5-HT7 receptor (Rattus norvegicus (Rat), UniProt P32305)
- assay.explanation: r5-HT7 binding assay, competitive radioligand binding with [3H]5-CT
- study.conditions: rat 5-HT7 receptor, HEK-293 membranes
measurement.type: pKi
Worth noting: pKi values are minus log10 of concentrations stated in mol/L.

Please list pKi recorded for the compound CC(Oc1ccc(Br)cc1OC1CNC1)c1cccc(OC(F)(F)F)c1 (racemic)
7.05

Please list pKi recorded for the compound Fc1ccc(COc2ccc(Cl)cc2OC2CNC2)c(F)c1
7.38

Please list pKi recorded for the compound Fc1ccc(OCc2ccc(C(F)(F)F)o2)c(OC2CNC2)c1
6.44

Please list pKi recorded for the compound COc1cccc(COc2ccc(Br)cc2OC2CCN(C)C2)c1 (racemic)
7.89

More entries:
Please list pKi recorded for the compound Clc1cccc(COc2ccc(Br)cc2OC2CN(C3CCC3)C2)c1
7.74

Please list pKi recorded for the compound FC(F)(F)c1ccc(COc2ccc(Br)cc2OC2CCNCC2)o1
7.77

Please list pKi recorded for the compound FC(F)(F)Oc1ccc(COc2ccc(Cl)cc2OC2CNC2)cc1
7.46

Please list pKi recorded for the compound CC(Oc1ccc(Cl)cc1OC1CNC1)c1cccc(C(F)(F)F)c1 (racemic) [Example 105]
7.64

Please list pKi recorded for the compound CC(Oc1ccc(Cl)cc1OC1CNC1)c1cc(F)cc(C(F)(F)F)c1 (racemic)
6.54

Please list pKi recorded for the compound CC(Oc1ccc(Cl)cc1OC1CNC1)c1cccc(F)c1 (racemic)
7.48

###

- test.system: rat 5-HT7 receptor (Rattus norvegicus (Rat))
- assay.explanation: r5-HT7 binding assay, competitive radioligand binding with [3H]5-CT
- study.conditions: rat 5-HT7, HEK-293 membranes
Entries and their Ki
Expressed in µM, but write only the number.

Below are worked cases with known answers.
Please list Ki recorded for the compound O=C(c1ccc2c(c1)OCO2)c1ccc(Br)cc1OC1CNC1
0.034

Please list Ki recorded for the compound Clc1ccc(Oc2nc3ccccc3o2)c(OC2CNC2)c1
0.031

Please list Ki recorded for the compound O=C(c1ccc2c(c1)OCO2)c1ccc(Cl)cc1OC1CNC1
0.226

Please list Ki recorded for the compound CC(C)N1CC(Oc2cc(Br)ccc2C(=O)c2ccc3ccccc3c2)C1
0.059

Please list Ki recorded for the compound CC(C)(C)N1CC(Oc2cc(Cl)ccc2OCc2cccc(C(F)(F)F)c2)C1
0.006

Please list Ki recorded for the compound CCC1(Oc2cc(Br)ccc2OCc2cccc(Cl)c2)CNC1
4.59

More entries:
Please list Ki recorded for the compound Cc1cc(Oc2cc(Cl)ccc2O[C@H]2CCNC2)ccc1F
8.6

Please list Ki recorded for the compound Clc1ccc(Oc2ccccc2)c(OC2CCNCC2)c1
0.13
